# Target Entity: Heat shock protein HSP90 (Homo sapiens) (UniProt P07900+P08238)
# Assay Notes: Inhibition of HSP90 in human H1299 cells assessed as reduction in HIF-1alpha at 10 nM incubated for 72 hrs and subsequently incubated under hypoxic conditions for 12 hrs by Western blot analysis relative to control
# Format: cell-based
# Run Parameters: values are per cent of control
Reported Metric: response, % of control (%)
Give bare numbers, in %.

The following molecules have reported results that may help.
>  <Structure Notation>
COc1ccc(N(C)C(=O)c2ccc3c(c2OC)C=CC(C)(C)O3)nc1OC

>  <Measured Number>
90.4

$$$$
>  <Structure Notation>
COc1ccc(N(CCN2CCNCC2)C(=O)c2ccc3c(c2OC)C=CC(C)(C)O3)cc1OC

>  <Measured Number>
60.6

$$$$
>  <Structure Notation>
COc1ccc(N(CCN2CCOCC2)C(=O)c2ccc3c(c2OC)C=CC(C)(C)O3)nc1OC

>  <Measured Number>
72.9

$$$$

# return response, % of control for each item in the list
1. COc1ccc(N(CCN)C(=O)c2ccc3c(c2OC)C=CC(C)(C)O3)nc1OC
2. COc1ccc(N(CCNC(C)=O)C(=O)c2ccc3c(c2OC)C=CC(C)(C)O3)nc1OC
3. COc1ccc(N(CCN2CCN(C)CC2)C(=O)c2ccc3c(c2OC)C=CC(C)(C)O3)nc1OC
4. CNCCN(C(=O)c1ccc2c(c1OC)C=CC(C)(C)O2)c1ccc(OC)c(OC)n1
5. COc1ccc(N(C(=O)c2ccc3c(c2OC)C=CC(C)(C)O3)c2ccccc2)cc1OC
6. COc1ccc(N(Cc2ccncc2)C(=O)c2ccc3c(c2OC)C=CC(C)(C)O3)nc1OC
7. COc1ccc(N(CCN2CCOCC2)C(=O)c2ccc3c(c2OC)C=CC(C)(C)O3)c(F)c1OC
8. COc1ccc(N(CCCN)C(=O)c2ccc3c(c2OC)C=CC(C)(C)O3)nc1OC

1. 64
2. 66
3. 97.2
4. 93
5. 83.7
6. 108
7. 111
8. 111

Kindly give each listed record's response, % of control.
1. COc1ccc(N(Cc2ccc(F)cc2)C(=O)c2ccc3c(c2OC)C=CC(C)(C)O3)nc1OC
2. COc1ccc(N(CCCN(C)C)C(=O)c2ccc3c(c2OC)C=CC(C)(C)O3)nc1OC
3. COc1ccc(N(CCN)C(=O)c2ccc3c(c2OC)C=CC(C)(C)O3)cc1OC
4. COc1ccc(N(Cc2ccccc2)C(=O)c2ccc3c(c2OC)C=CC(C)(C)O3)nc1OC

104
65.6
62.1
83.4

---

# Target Entity: Heat shock protein HSP90 (Homo sapiens) (UniProt P07900+P08238)
# Assay Notes: Inhibition of HSP90 in human H1299 cells assessed as reduction in HIF-1alpha at 100 nM incubated for 72 hrs and subsequently incubated under hypoxic conditions for 12 hrs by Western blot analysis relative to control
# Format: cell-based
# Run Parameters: values are per cent of control
Exercise: state measured response, % of control for each of the compounds provided.

Please review the entries below; each comes with its answer.
>  <Structure Notation>
COCCN(C(=O)c1ccc2c(c1OC)C=CC(C)(C)O2)c1ccc(OC)c(OC)c1F

>  <response, % of control>
59.3%

$$$$
>  <Structure Notation>
COc1ccc(N(C)C(=O)c2ccc3c(c2OC)C=CC(C)(C)O3)c(F)c1OC

>  <response, % of control>
93.1%

$$$$

Lab note: next compound to report on.
Fill in: response, % of control of "COc1ccc(N(CCNC(=O)OC(C)(C)C)C(=O)c2ccc3c(c2OC)C=CC(C)(C)O3)nc1OC" is ___
57.4%

---

# Target Entity: Heat shock protein HSP90 (Homo sapiens) (UniProt P07900+P08238)
# Assay Notes: Inhibition of HSP90 in human H1299 cells assessed as reduction in HIF-1alpha at 100 nM incubated for 72 hrs and subsequently incubated under hypoxic conditions for 12 hrs by Western blot analysis relative to control
# Type: cell-based
# Run Parameters: values are per cent of control
Consider the following molecules; for each one, report its response, % of control.
Give the figure together with its unit, number first.

>  <Structure Notation>
COc1ccc(N(Cc2ccccn2)C(=O)c2ccc3c(c2OC)C=CC(C)(C)O3)nc1OC

>  <Result>
97%

$$$$
>  <Structure Notation>
COc1ccc(N(CCOCc2ccccc2)C(=O)c2ccc3c(c2OC)C=CC(C)(C)O3)c(F)c1OC

>  <Result>
65.4%

$$$$

Let us examine a further case.
Sample "COc1ccc(N(Cc2cccc(Cl)c2)C(=O)c2ccc3c(c2OC)C=CC(C)(C)O3)nc1OC" — what was its response, % of control?
80.2%

---

# Target Entity: Heat shock protein HSP90 (Homo sapiens) (UniProt P07900+P08238)
# Assay Notes: Inhibition of HSP90 in human H1299 cells assessed as reduction in HIF-1alpha at 100 nM incubated for 72 hrs and subsequently incubated under hypoxic conditions for 12 hrs by Western blot analysis relative to control
# Format: cell-based
# Run Parameters: values are per cent of control
For each of the compounds below, state its response, % of control.
Answer with the value and then the unit.

Use the examples below as a reference point.
>  <Structure Notation>
COc1ccc(N(C(=O)c2ccc3c(c2OC)C=CC(C)(C)O3)c2ccc(Cl)cc2)cc1OC

>  <Reported Metric>
response, % of control

>  <Result>
81.2%

$$$$
>  <Structure Notation>
COCCN(C(=O)c1ccc2c(c1OC)C=CC(C)(C)O2)c1ccc(OC)c(OC)n1

>  <Reported Metric>
response, % of control

>  <Result>
52.5%

$$$$
>  <Structure Notation>
COc1ccc(N(CCO)C(=O)c2ccc3c(c2OC)C=CC(C)(C)O3)cc1OC

>  <Reported Metric>
response, % of control

>  <Result>
133%

$$$$
>  <Structure Notation>
COc1ccc(N(CCN2CCOCC2)C(=O)c2ccc3c(c2OC)C=CC(C)(C)O3)cc1OC

>  <Reported Metric>
response, % of control

>  <Result>
117%

$$$$
>  <Structure Notation>
COc1ccc(N(CCOCc2ccccc2)C(=O)c2ccc3c(c2OC)C=CC(C)(C)O3)nc1OC

>  <Reported Metric>
response, % of control

>  <Result>
57.2%

$$$$

Your task in this section: give response, % of control for each listed record.
1. COc1ccc(N(Cc2ccccc2)C(=O)c2ccc3c(c2OC)C=CC(C)(C)O3)c(F)c1OC
2. COc1ccc(N(CCN(C)C)C(=O)c2ccc3c(c2OC)C=CC(C)(C)O3)cc1OC

1: 60.8%; 2: 71%
